target.desc: HIV gp120 CAAN (HIV)
protocol.text: single-point ELISA; note: test concentration or dose not given here
experimental.readout: ELISA (A450)
Provide a numeric answer, followed by its unit.

INPUT: Which ELISA (A450) is listed for 1.31.35-1 (antibody, human IgG1, kappa, V domains shown) VH: QVQLVQSGAEVTKPGASVRVSCEASGYNIRDYFIHWWRQAPGQGLQWVGWINPKTGQPNNPRQFQGRVSLTRHASWDFDTFSFYMDLKALRSDDTATYFCARQRSDYWDFDVWGSGTQVTVSS VL: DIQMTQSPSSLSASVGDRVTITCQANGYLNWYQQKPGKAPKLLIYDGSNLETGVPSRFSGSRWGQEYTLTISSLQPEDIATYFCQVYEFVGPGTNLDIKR ?
OUTPUT: 0.77 A450

INPUT: Another binder to look at: 1.32.35-1 (antibody, human IgG1, kappa, V domains shown) VH: QVQLVQSGAEVTKPGASVRVSCEASGYNIRDYFIHWWRQAPGQGLQWVGWINPKTGQPNNPRQFQGRVSLTRHASWDFDTFSFYMDLKALRSDDTAVYFCARQRTDYWDFDVWGSGTQVTVSS VL: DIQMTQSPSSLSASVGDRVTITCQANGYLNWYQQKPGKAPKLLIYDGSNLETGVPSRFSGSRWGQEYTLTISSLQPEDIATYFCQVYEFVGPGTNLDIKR
OUTPUT: 0.59 A450

INPUT: Query 1.1.35-1 (antibody, human IgG1, kappa, V domains shown) VH: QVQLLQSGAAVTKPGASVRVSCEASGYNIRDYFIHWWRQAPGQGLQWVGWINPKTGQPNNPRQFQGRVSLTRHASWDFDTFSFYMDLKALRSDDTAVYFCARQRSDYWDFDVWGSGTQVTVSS VL: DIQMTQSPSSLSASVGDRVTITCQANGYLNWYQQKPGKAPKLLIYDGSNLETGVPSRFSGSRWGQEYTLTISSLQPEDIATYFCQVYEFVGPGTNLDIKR next
OUTPUT: 0.75 A450

INPUT: Param item: 1.14.17-1 (antibody, human IgG1, kappa, V domains shown) VH: QVQLLQSGAAVTKPGASVRVSCEASGYNIRDYFMHWVRQAPGQGLQWVGWINPKTGQPNNPRQFQGRVSLTRHASWDFDTFSAYMDLKALRSDDTAVYFCARQRSDYWDFDVWGSGTQVTVSS VL: DIQMTQSPSSLSASVGDTVTITCQANGYLNWYQQRRGKAPKLLIYDGSKLERGVPSRFSGRRWGQEYNLTINNLQPEDIATYFCQVYEFFGPGTRLDLKR
OUTPUT: 0.43 A450

INPUT: Repeat with 1.36.35-1 (antibody, human IgG1, kappa, V domains shown) VH: QVQLVQSGAEVKKPGASVRVSCKASGYNIRDYFMHWWRQAPGQGLQWVGWINPKTGQPNNPRQFQGRVTMTRHASWDFDTFSAYMDLSRLRSDDTATYFCARQRTDYWDFDVWGQGTMVTVSS VL: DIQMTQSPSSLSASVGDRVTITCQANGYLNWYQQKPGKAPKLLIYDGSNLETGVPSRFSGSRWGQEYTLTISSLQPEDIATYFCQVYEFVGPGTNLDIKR
OUTPUT: 0.36 A450

The values you see were collected from patent US20220089698A1.
